# Experimental Protocol: High-throughput drug toxicity screening in the BPDCN cell line Cal-1 (AID 1224825);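 note: cells exposed to compounds for 48 h; 100% = DMSO and 0% = bortezomib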
# Experimental Conditions: Cal-1 BPDCN cell viability, qHTS; at 45.8 µM (top of the series) unless noted
# viability (% of control) listing for each entry below

>  <Compound>
CC1(C)CNc2cc(NC(=O)c3cccnc3NCc3ccncc3)ccc21

>  <Unit Symbol>
%

>  <viability (% of control)>
69.9

$$$$
>  <Compound>
OCCn1cc(-c2cnc3nnn(Cc4ccc5ncccc5c4)c3n2)cn1

>  <Unit Symbol>
%

>  <viability (% of control)>
89.8

$$$$
>  <Compound>
Oc1ccc(C2CNCCc3c2cc(O)c(O)c3Cl)cc1 (centres undefined)

>  <Unit Symbol>
%

>  <viability (% of control)>
66.9

$$$$
>  <Compound>
CNC[C@H](O)c1cccc(O)c1

>  <Unit Symbol>
%

>  <viability (% of control)>
133

$$$$
>  <Compound>
Nc1nc2[nH]cc(CCc3ccc(C(=O)N[C@@H](CCC(=O)O)C(=O)O)cc3)c2c(=O)[nH]1

>  <Unit Symbol>
%

>  <viability (% of control)>
37.4

$$$$
>  <Compound>
CCc1cncnc1N1CCN(Cc2nc3ccc(C(F)(F)F)cc3[nH]2)CC1

>  <Unit Symbol>
%

>  <viability (% of control)>
91.1

$$$$
>  <Compound>
O=C(Nc1cccnc1)N1CCC(Cc2cccc(Oc3ccc(C(F)(F)F)cn3)c2)CC1

>  <Unit Symbol>
%

>  <viability (% of control)>
52.7

$$$$
>  <Compound>
NCCc1ccc(O)c(O)c1

>  <Unit Symbol>
%

>  <viability (% of control)>
25

$$$$
>  <Compound>
O=C1CCCC2=C1C(c1[nH]ncc1Cl)N=C(Nc1nc3ccccc3o1)N2 (centres undefined)

>  <Unit Symbol>
%

>  <viability (% of control)>
82.3

$$$$

---

# Experimental Protocol: qHTS of pediatric cancer cell lines to identify multiple opportunities for drug repurposing: Primary screen for Rh18 cells (AID 1347102); note: nearly all actives have a fitted effect of over 65% in size
# Experimental Conditions: Rh18 rhabdomyosarcoma viability, CellTiter-Glo luminescence, 48 h; series mostly up to 46 µM
Records with an inconclusive call do not appear. Activity calls are given as the source filed them. Calls come from the whole dose curve; as a rule, active = well fitted cell-killing curve with a large enough effect; inconclusive = small, poorly fitted or top-dose-only effect; inactive = flat fitted curve, though single readings scatter.
Labels: yes for active, no for inactive

>  <Compound>
NC(=O)c1ccc(-c2nc(-c3ccc4c(c3)OCO4)c(-c3ccccn3)[nH]2)cc1

>  <Category>
no

$$$$
>  <Compound>
CC(C=CC1=C(C)CCCC1(C)C)=CC=CC(C)=CC(=O)O

>  <Category>
no

$$$$
>  <Compound>
COc1nc(-c2ccc3c(c2)OCO3)n(-c2ccc(NC(=O)CSc3ccccc3)cc2)n1

>  <Category>
no

$$$$
>  <Compound>
O=c1[nH]c(-c2ccc(C(F)(F)F)cc2)nc2c1CSCC2

>  <Category>
no

$$$$
>  <Compound>
NCCCC(N)(C(=O)O)C(F)F (stereo not given)

>  <Category>
no

$$$$
>  <Compound>
O=C(C1CC1)N1CC[C@@H](Cn2c(-c3ccc(-c4ccc5occc5c4)cc3)nc3cnccc32)C1

>  <Category>
no

$$$$
>  <Compound>
CN(C)C(=O)c1ccc(S(=O)(=O)c2ccc(NC(=O)[C@@](C)(O)C(F)(F)F)c(Cl)c2)cc1

>  <Category>
no

$$$$
>  <Compound>
O=C(Nc1cccnc1)N1CCC(Cc2cccc(Oc3ccc(C(F)(F)F)cn3)c2)CC1

>  <Category>
no

$$$$
>  <Compound>
O=C(O)[C@@H](c1ccc(OCc2ccc3ccccc3n2)cc1)C1CCCC1

>  <Category>
no

$$$$
>  <Compound>
CC[C@@H](C)[C@H](NC(=O)[C@H](CC1CCCCC1)NC(=O)c1ccno1)C(=O)N1CCC2(CCc3ccccc32)CC1

>  <Category>
no

$$$$
>  <Compound>
CC(C)(Sc1ccc(CCN(CCCCC2CCCCC2)C(=O)NC2CCCCC2)cc1)C(=O)O

>  <Category>
no

$$$$
>  <Compound>
COc1cc(Oc2ccnc3cc(OC)c(OC)cc23)ccc1NC(=O)NC(C)c1nccs1 (stereo not given)

>  <Category>
no

$$$$
>  <Compound>
CCCc1nc2c(C)cc(-c3nc4ccccc4n3C)cc2n1Cc1ccc(-c2ccccc2C(=O)O)cc1

>  <Category>
no

$$$$
>  <Compound>
Nc1nc2ccc(OC(F)(F)F)cc2s1

>  <Category>
no

$$$$
>  <Compound>
Cc1oncc1C(=O)Nc1ccc(C(F)(F)F)cc1

>  <Category>
no

$$$$
>  <Compound>
CS(=O)(=O)Oc1ccc2c(NC(N)=O)c(C(=O)c3ccc(Cl)cc3Cl)oc2c1

>  <Category>
yes

$$$$
>  <Compound>
COc1ccc(CC2=NN3C([C@@H](CCc4ccccc4)[C@@H](C)O)=NC(C)C3C(=O)N2)cc1OC (stereo not given in full)

>  <Category>
no

$$$$
>  <Compound>
CCN(CC)CCCC(C)Nc1nc(C)cc(Nc2ccc3nc(C)cc(N)c3c2)n1 (stereo not given)

>  <Category>
no

$$$$
>  <Compound>
C[C@]12CCC(=O)C=C1CC[C@@H]1[C@@H]2[C@@H](O)C[C@@]2(C)[C@H]1CC[C@]2(O)C(=O)CO

>  <Category>
no

$$$$
>  <Compound>
O=c1ncn2nc(Sc3ccc(F)cc3F)ccc2c1-c1c(Cl)cccc1Cl

>  <Category>
no

$$$$

---

# Test system: MCC-13
# Experimental Protocol: qHTS assay to identify novel small-molecules to repurpose for Merkel cell carcinoma treatment (AID 1296009); note: % is set by controls: 0 for no effect and ±100 for the full control effect; nearly all actives have a fitted effect of over 60% in size
# Experimental Conditions: MCC and control cell lines, CellTiter-Glo viability, 72 h; series mostly up to 46 µM
Inconclusive results are not listed. Active and inactive are the calls of the source. Calls follow the shape of the dose curve; as a rule, active = well fitted inhibition curve with a large enough effect; inconclusive = small, poorly fitted or top-dose-only effect; inactive = flat fitted curve, though single readings scatter.
Measured Metric: outcome

>  <Compound>
COc1cccc2cc(-c3nc(C4CCC(C(=O)O)CC4)n4ncnc(N)c34)[nH]c12 (stereo unspecified)

>  <Measured Metric>
outcome

>  <Reported Measurement>
inactive

$$$$
>  <Compound>
CN1CCN(CCCN2c3ccccc3Sc3ccc(C(F)(F)F)cc32)CC1

>  <Measured Metric>
outcome

>  <Reported Measurement>
inactive

$$$$
>  <Compound>
CCN(CC)CCCC(C)Nc1ccnc2cc(Cl)ccc12 (stereo unspecified)

>  <Measured Metric>
outcome

>  <Reported Measurement>
inactive

$$$$
>  <Compound>
NC(=O)C1CCCc2c1[nH]c1ccc(Cl)cc21 (stereo unspecified)

>  <Measured Metric>
outcome

>  <Reported Measurement>
inactive

$$$$
>  <Compound>
Cc1[nH]c(=O)c(C#N)cc1-c1ccncc1

>  <Measured Metric>
outcome

>  <Reported Measurement>
inactive

$$$$
>  <Compound>
Cc1ccc(-n2nc(C(C)(C)C)cc2NC(=O)Nc2ccc(OCCN3CCOCC3)c3ccccc23)cc1

>  <Measured Metric>
outcome

>  <Reported Measurement>
inactive

$$$$
>  <Compound>
Cc1cc(-c2ccc(CC(=O)Nc3ccc(-c4cccnc4)cc3)cc2)ccn1

>  <Measured Metric>
outcome

>  <Reported Measurement>
inactive

$$$$
>  <Compound>
CN(C)c1ccc(C2Nc3ccc4ccccc4c3C3=C2C(=O)CC(C)(C)C3)cc1Br (stereo unspecified)

>  <Measured Metric>
outcome

>  <Reported Measurement>
inactive

$$$$
>  <Compound>
Cc1[nH]c(=O)c(C#N)cc1-c1ccc2nccn2c1

>  <Measured Metric>
outcome

>  <Reported Measurement>
inactive

$$$$
>  <Compound>
OCCn1cc(-c2cnc3nnn(Cc4ccc5ncccc5c4)c3n2)cn1

>  <Measured Metric>
outcome

>  <Reported Measurement>
inactive

$$$$
>  <Compound>
NS(=O)(=O)c1cc2c(cc1Cl)NC=NS2(=O)=O

>  <Measured Metric>
outcome

>  <Reported Measurement>
inactive

$$$$

---

# Experimental Protocol: Quantitative High-Throughput drug screen in 47 multiple myeloma cell lines against the NCATS MIPE library collection: FR4_PLB cell viability assay (AID 1918924; note: nearly all actives have a fitted effect of over 35% in size; note: potency is the fitted concentration of half-maximal effect)
# Experimental Conditions: FR4_PLB myeloma cells viability, CellTiter-Glo ATP, 48 h; series mostly up to 45.8 µM
Results filed as inconclusive are left out. Calls of active or inactive are those of the source. The call rests on the fitted dose curve; in most records, active means well fitted cell-killing curve with a large enough effect; inconclusive means small, poorly fitted or top-dose-only effect, or effect the other way; inactive means no such curve, though single readings can be large or run the other way.
Measured Metric: Potency

>  <Compound>
Cc1cc2c(F)c(Oc3ncnn4cc(OC[C@@H](C)O)c(C)c34)ccc2[nH]1

>  <Reported Measurement>
inactive

$$$$
>  <Compound>
OC(CN1CCC(Cc2ccc(F)cc2)CC1)c1ccc(Cl)cc1 (stereo unspecified)

>  <Reported Measurement>
inactive

$$$$
>  <Compound>
O=c1[nH]c(-c2ccc(C(F)(F)F)cc2)nc2c1CSCC2

>  <Reported Measurement>
inactive

$$$$
>  <Compound>
CCc1ccc(CCOc2ccc(CC3SC(=O)NC3=O)cc2)nc1 (stereo unspecified)

>  <Reported Measurement>
inactive

$$$$
>  <Compound>
CS(=O)(=O)c1ccc(C(=O)Nc2ccc(Cl)c(-c3ccccn3)c2)c(Cl)c1

>  <Reported Measurement>
inactive

$$$$
>  <Compound>
NC(=O)c1cnccn1

>  <Reported Measurement>
inactive

$$$$
>  <Compound>
OC[C@H](Cc1ccccc1)Nc1nc(Oc2ccc3c(c2)CCC3)nc2c1ncn2Cc1ccc(-c2ccccc2)cc1

>  <Reported Measurement>
inactive

$$$$
>  <Compound>
Oc1cccc(-c2nc(N3CCOCC3)c3oc4ncccc4c3n2)c1

>  <Reported Measurement>
0.0762 µM (active)

$$$$
>  <Compound>
Cc1cnc(Nc2ccc(OCCN3CCCC3)cc2)nc1Nc1cccc(S(=O)(=O)NC(C)(C)C)c1

>  <Reported Measurement>
inactive

$$$$
>  <Compound>
Cc1c(C)c2c(c(C)c1O)CCC(C)(COc1ccc(CC3SC(=O)NC3=O)cc1)O2 (stereo unspecified)

>  <Reported Measurement>
inactive

$$$$
>  <Compound>
OCCn1cc(-c2cnc3nnn(Cc4ccc5ncccc5c4)c3n2)cn1

>  <Reported Measurement>
inactive

$$$$
>  <Compound>
COc1ccc(-c2ccc3c(N4CCOCC4)nc(N4C[C@@H](C)O[C@@H](C)C4)nc3n2)cc1CO

>  <Reported Measurement>
0.469 µM (active)

$$$$
>  <Compound>
O=C(O)CCc1ccc(NCc2cccc(Oc3ccccc3)c2)cc1

>  <Reported Measurement>
inactive

$$$$
>  <Compound>
COc1ccccc1-c1cccc(-c2c(O)c3cc(C#N)c(Cl)cc3[nH]c2=O)c1

>  <Reported Measurement>
inactive

$$$$
>  <Compound>
CS(=O)(=O)Oc1ccc2c(NC(N)=O)c(C(=O)c3ccc(Cl)cc3Cl)oc2c1

>  <Reported Measurement>
inactive

$$$$
>  <Compound>
CCn1c(-c2nonc2N)nc2c(C#CC(C)(C)O)ncc(OC[C@H]3CCCNC3)c21

>  <Reported Measurement>
14.8 µM (active)

$$$$
>  <Compound>
CC(c1cc2ccccc2s1)N(O)C(N)=O (stereo unspecified)

>  <Reported Measurement>
inactive

$$$$
>  <Compound>
Oc1ccc(C2CNCCc3c2cc(O)c(O)c3Cl)cc1 (stereo unspecified)

>  <Reported Measurement>
inactive

$$$$
>  <Compound>
Cc1cccc(-c2nn(C(=S)Nc3ccccc3)cc2-c2ccnc3ccccc23)n1

>  <Reported Measurement>
inactive

$$$$
>  <Compound>
CCOc1ccn(-c2ccc(F)cc2)c(=O)c1C(=O)Nc1ccc(Oc2ccnc(N)c2Cl)c(F)c1

>  <Reported Measurement>
18.7 µM (active)

$$$$
>  <Compound>
Cc1cc(SCc2sc(-c3ccc(C(F)(F)F)cc3)nc2C)ccc1OCC(=O)O

>  <Reported Measurement>
inactive

$$$$
